Ref: patent US20210292347A1

System: human lung cancer cell line NCI-H460
Assay: cells
Assay type: cell-based
Settings: Homo sapiens, NCI-H460; MTT, cultured for 48 hours; value (95% confidence limit); Table 2; read-out: IC50 Lung cancer NCI-H460
Would you kindly list IC50 for each of these compounds?
State the answer as a number, implicitly in µM.

Request: // query IC50 value for entry Nc1nn(O)c2c(=O)n(C3OC(CO)C(O)C3O)nnc12 (centres unmarked)
Result: 22

Request: Input CCOC(=O)c1nn(CO)c2c(=O)n(C3OC3CO)nnc12 (centres unmarked)
Result: 5.18

Request: Also CCCc1nn(C(C(=O)O)P(=O)(OCC)OCC)c2c(=O)n(C3CCC(CO)O3)nnc12 (centres unmarked) , if possible.
Result: 60.5

Request: Okay, and CCCc1nn(C)c2c(=O)n(C3OC(COP(=O)(O)OP(=O)(O)OP(=O)(O)O)C(O)C3O)nnc12 (centres unmarked) ?
Result: 14

Request: Now this one: Nc1nn(O)c2c(=O)n(C3CSC(CO)O3)nnc12 (centres unmarked)
Result: 8.52
